// values below are reported IC50
Target: Histone deacetylase 2 (Homo sapiens, UniProt Q92769)
Sequence (Q92769 whole entry): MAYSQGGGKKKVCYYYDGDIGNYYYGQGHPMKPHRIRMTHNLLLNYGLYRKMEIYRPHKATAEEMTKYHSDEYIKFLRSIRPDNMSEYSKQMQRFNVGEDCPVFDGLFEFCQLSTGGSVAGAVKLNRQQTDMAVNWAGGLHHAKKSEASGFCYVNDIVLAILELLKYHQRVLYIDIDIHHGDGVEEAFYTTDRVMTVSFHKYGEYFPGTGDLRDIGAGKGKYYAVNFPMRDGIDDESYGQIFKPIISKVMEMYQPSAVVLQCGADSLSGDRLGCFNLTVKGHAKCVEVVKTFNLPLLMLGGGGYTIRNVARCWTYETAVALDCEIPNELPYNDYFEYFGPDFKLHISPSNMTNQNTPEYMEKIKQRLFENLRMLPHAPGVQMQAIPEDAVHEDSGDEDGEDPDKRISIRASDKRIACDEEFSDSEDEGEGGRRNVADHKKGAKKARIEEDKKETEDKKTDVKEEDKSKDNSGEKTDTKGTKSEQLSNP
Assay: Inhibition of recombinant full length C-terminal His-tagged human HDAC2 expressed in baculovirus expression system using fluorogenic substrate by fluorescence assay

## Input // Input: CCOC(=O)NCCCC(=O)NCCc1ccccc1 . Output its IC50 only.
## Output 5 to 10 µM

## Input Indicate its recorded IC50; the compound in question is O=C(CCCC(=O)NCCc1ccccc1)NO
## Output 5 to 10 µM

----------
Molecular target: UniProtKB Q96DB2
Sequence (Q96DB2 whole entry): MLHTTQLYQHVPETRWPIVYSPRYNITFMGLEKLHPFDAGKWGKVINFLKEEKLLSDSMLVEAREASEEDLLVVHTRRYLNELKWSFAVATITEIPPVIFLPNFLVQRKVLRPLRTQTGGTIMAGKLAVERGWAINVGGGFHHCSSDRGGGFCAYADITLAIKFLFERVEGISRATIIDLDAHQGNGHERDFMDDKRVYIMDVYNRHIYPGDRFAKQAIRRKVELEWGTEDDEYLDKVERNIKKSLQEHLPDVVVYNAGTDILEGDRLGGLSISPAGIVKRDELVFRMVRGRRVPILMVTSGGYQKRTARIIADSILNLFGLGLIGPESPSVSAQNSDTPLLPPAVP
Assay: Inhibition of full length recombinant human HDAC11 expressed in baculovirus expression system using fluorogenic substrate by fluorescence assay
Measured IC50 values are reported for all entries that follow.

{"compound structure": "CCOC(=O)NCCCC(=O)NCCc1ccccc1", "IC50": "5 to 10 µM"}

# context switch: different molecule, same IC50
## Input Quote UniProtKB Q96DB2 IC50 for entry O=C(CCCC(=O)NCCc1ccccc1)NO .
## Output 5 to 10 µM

----------
Target: Histone deacetylase 7 (Homo sapiens, UniProt Q8WUI4)
Sequence (Q8WUI4 whole entry): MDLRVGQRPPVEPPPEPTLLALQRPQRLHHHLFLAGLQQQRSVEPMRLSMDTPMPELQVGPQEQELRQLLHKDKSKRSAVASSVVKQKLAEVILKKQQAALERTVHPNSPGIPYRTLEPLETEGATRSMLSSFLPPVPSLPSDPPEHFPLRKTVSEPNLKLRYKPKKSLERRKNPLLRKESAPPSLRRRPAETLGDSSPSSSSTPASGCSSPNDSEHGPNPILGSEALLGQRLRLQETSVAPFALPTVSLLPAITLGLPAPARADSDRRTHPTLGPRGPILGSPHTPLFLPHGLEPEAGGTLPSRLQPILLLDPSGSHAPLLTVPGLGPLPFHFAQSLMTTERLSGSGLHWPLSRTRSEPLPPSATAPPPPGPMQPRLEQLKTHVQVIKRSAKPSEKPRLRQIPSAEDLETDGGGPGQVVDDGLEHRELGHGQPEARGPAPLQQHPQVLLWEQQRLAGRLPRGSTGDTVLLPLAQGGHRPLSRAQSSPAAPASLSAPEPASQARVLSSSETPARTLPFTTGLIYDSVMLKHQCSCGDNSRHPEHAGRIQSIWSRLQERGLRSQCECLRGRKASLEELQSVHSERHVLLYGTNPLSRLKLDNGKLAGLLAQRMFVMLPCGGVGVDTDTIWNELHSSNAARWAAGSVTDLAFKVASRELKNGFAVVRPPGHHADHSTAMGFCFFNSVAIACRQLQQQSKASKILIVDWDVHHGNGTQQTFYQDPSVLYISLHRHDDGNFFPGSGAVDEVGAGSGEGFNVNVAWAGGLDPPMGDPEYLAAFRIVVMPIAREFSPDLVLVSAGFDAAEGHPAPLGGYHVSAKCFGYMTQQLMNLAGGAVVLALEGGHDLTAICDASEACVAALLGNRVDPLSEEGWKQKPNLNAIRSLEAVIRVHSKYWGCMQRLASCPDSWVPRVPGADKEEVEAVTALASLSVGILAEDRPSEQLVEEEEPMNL
Assay: Inhibition of recombinant N-terminal GST-tagged human HDAC7 (518 to end residues) expressed in baculovirus expression system using fluorogenic substrate by fluorescence assay
The entries below are paired with their reported IC50.

{"compound structure": "O=C(CCCC(=O)NCCc1ccccc1)NO", "property measured": "IC50", "result": "> 10 µM"}

## Input State its IC50: CCOC(=O)NCCCC(=O)NCCc1ccccc1
## Output 5 to 10 µM

----------
Target: Polyamine deacetylase HDAC10 (Homo sapiens)
Sequence (Q969S8 whole entry, the tested form may be a part): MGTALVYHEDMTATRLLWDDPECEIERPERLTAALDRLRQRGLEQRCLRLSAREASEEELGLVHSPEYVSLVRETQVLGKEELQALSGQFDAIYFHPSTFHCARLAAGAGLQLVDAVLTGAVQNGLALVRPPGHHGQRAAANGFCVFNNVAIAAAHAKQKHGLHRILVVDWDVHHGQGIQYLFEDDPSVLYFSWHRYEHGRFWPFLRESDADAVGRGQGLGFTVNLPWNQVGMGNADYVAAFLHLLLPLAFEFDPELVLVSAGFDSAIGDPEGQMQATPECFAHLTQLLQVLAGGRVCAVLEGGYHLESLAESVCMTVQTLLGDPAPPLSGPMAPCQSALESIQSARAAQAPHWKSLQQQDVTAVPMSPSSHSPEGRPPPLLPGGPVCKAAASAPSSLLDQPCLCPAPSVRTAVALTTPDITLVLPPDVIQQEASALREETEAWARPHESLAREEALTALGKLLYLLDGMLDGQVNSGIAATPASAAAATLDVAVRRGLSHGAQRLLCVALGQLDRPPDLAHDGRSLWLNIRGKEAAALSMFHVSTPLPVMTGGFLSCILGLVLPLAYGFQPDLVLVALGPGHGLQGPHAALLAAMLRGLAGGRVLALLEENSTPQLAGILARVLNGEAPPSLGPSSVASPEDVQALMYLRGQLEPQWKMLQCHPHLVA
Assay: Inhibition of recombinant N-terminal FLAG-tagged human HDAC10 (2 to 631 residues) expressed in baculovirus expression system using fluorogenic substrate by fluorescence assay
property measured: IC50

{"compound structure": "CCOC(=O)NCCCC(=O)NCCc1ccccc1", "IC50": "5 to 10 µM"}

Now, please, on to the next molecule.
## Input Look up IC50 of O=C(CCCC(=O)NCCc1ccccc1)NO and report it.
## Output 5 to 10 µM
